- System: guinea pig platelets
- assayProtocol: Ex vivo/vitro inhibition of platelet aggregation after administration via the gastric route in guinea pigs
- Parameters: species or system guinea pig (Dunkin-Hartley)
- conditionContext: Cavia porcellus, Platelet, 10 mg/kg, 2 h before blood sampling, fasted guinea pigs, read-out: % of g.r. inhibition guinea pig ex vivo, d = 10 mg/kg, 2 h
Counter-ions that a name gives are not always drawn.
Outcome: class 1 for inhibition at 10 mg/kg of at least -20%; class 0 for anything lower.

Solved cases (2 shown):
- O=C(CNC(=O)C(CCC1CCNCC1)CCC1CCNCC1)NCC(NS(=O)(=O)c1ccc2c(c1)CCO2)C(=O)O (stereo not drawn) [Example 64, Dihydrochloride]: class 1
- O=C(CNC(=O)C(CCC1CCNCC1)CCC1CCNCC1)NC[C@H](NS(=O)(=O)c1ccc2c(c1)OCO2)C(=O)O [Example 57, Dihydrochloride]: class 0

Reported inhibition at 10 mg/kg reaches at least -20% for Cc1n[nH]c(C)c1S(=O)(=O)NC(CNC(=O)CNC(=O)C(CCC1CCNCC1)CCC1CCNCC1)C(=O)O (stereo not drawn) [Example 55, Dihydrochloride] ?
class 1

Repeat for the following compound: O=C(CNC(=O)C(CCC1CCNCC1)CCC1CCNCC1)NCC(NS(=O)(=O)Cc1ccccc1)C(=O)O (stereo not drawn) [Example 41, Dihydrochloride]
class 1

Here is the next compound: O=C(CNC(=O)C(CCC1CCNCC1)CCC1CCNCC1)NC[C@H](NS(=O)(=O)c1cc2ccccc2s1)C(=O)O [Example 59, Dihydrochloride]
class 0

Please give the result for O=C(CNC(=O)C(CCC1CCNCC1)CCC1CCNCC1)NCC(NS(=O)(=O)c1ccc2c(c1)CCC2)C(=O)O (stereo not drawn) [Example 70, Dihydrochloride] too.
class 0

What do you get for O=C(CNC(=O)C(CCC1CCNCC1)CCC1CCNCC1)NCC(NS(=O)(=O)c1ccc(-c2ccccc2)s1)C(=O)O (stereo not drawn) [Example 71, Dihydrochloride] ?
class 0

Try this compound too: Cc1cccc(S(=O)(=O)NC(CNC(=O)CNC(=O)C(CCC2CCNCC2)CCC2CCNCC2)C(=O)O)c1 (stereo not drawn) [Example 40, Dihydrochloride]
class 1

Moving on to the next compound: O=C(CCNC(=O)C(CCC1CCNCC1)CCC1CCNCC1)NCC(NS(=O)(=O)c1ccc2ccccc2c1)C(=O)O (stereo not drawn) [Example 78, Dihydrochloride]
class 0

Same lookup for O=C(CNC(=O)C(CCC1CCNCC1)CCC1CCNCC1)NCC(NS(=O)(=O)c1ccc(F)c2ccccc12)C(=O)O (stereo not drawn) [Example 62, Dihydrochloride] , please.
class 0

Please answer likewise for CS(=O)(=O)c1ccc(S(=O)(=O)NC(CNC(=O)CNC(=O)C(CCC2CCNCC2)CCC2CCNCC2)C(=O)O)cc1 (stereo not drawn) [Example 32, Dihydrochloride]
class 1

What about Cc1cc(C)c(S(=O)(=O)NC(CNC(=O)CNC(=O)C(CCC2CCNCC2)CCC2CCNCC2)C(=O)O)c(C)c1 (stereo not drawn) [Example 37, Dihydrochloride] ?
class 1

Ref: patent US6333338A
